studySystem: T1, N-terminally GST-tagged TRAF6 (mouse, UniProt P70196 1-530)
T1 construct: TNF receptor-associated factor 6 (TRAF6), mouse; amplified by PCR with primers from the start codon to the stop codon; 530 residues by the printed limits of the cc-c construct; also called GST-TRAF6; purified recombinant TRAF6; source: E. coli BL21 (DE3), purified (GST bulk kit); not shown: GST, N-terminal, kept
T1 sequence (looked up): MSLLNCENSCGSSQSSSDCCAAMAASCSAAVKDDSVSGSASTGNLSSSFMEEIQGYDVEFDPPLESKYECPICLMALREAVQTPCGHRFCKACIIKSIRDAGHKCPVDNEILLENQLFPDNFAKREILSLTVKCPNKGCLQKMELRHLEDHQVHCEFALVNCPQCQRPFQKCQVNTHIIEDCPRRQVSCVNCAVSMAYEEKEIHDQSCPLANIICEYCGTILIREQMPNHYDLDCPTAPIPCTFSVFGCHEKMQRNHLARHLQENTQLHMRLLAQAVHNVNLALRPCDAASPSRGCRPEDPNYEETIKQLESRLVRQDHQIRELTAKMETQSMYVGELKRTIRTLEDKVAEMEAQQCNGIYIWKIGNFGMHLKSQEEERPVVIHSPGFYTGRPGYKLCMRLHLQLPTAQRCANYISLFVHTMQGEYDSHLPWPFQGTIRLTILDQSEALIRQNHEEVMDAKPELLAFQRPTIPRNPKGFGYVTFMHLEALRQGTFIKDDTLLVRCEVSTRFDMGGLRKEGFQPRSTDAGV
testDescription: SPR; BIACORE X100, single cycle kinetics; GST-TRAF6 amine-coupled on a CM5 chip, GST-coated sensor as reference; neuroplastin peptide injected at 2.5, 5, 100, 200 and 400 uM; HBS-P buffer
testSettings: both partners purified
resultType: pKd
Numbers only, as −log10 of the molar value.

Request: Entry EKRKRPDEVPDAGPMKTNSTNNHKDKNLRQRNTN (Peptide limits are not printed (possibly in the figure or supplement). The whole cytoplasmic tail is taken by convention from the UniProt topology; it should contain the printed motif RKRPDEVPD. …) [neuroplastin intracellular peptide containing the TRAF6 binding motif] has what pKd?
Response: 4.06

These entries and their values trace back to paper PMC7755605.
